Examples of molecules with documented pest or weed control at 140 g/ha follow.
# System: test plant species
# test details: Post-emergent herbicidal activity test (greenhouse, foliar spray, visual growth reduction)
# Type: in vivo
# cond: post-emergence, 336 h, crabgrass (Digitaria sanguinalis), 14 Days After Application, 140 g ai/ha, read-out: Visual Growth Reduction (%) DIGSA

Example cases with answers are listed next.
{"molecule": "COC(=O)c1nc(-c2ccc(Cl)c(C(C)F)c2Cl)ccc1Cl (centres unmarked) [F282]", "pest or weed control at 140 g/ha": "0 to 29%"}
{"molecule": "COC(=O)c1nc(-c2cc([N+](=O)[O-])c(C(F)(F)F)cc2Cl)c(F)cc1Cl [F322]", "pest or weed control at 140 g/ha": "0 to 29%"}
{"molecule": "COC(=O)c1nc(-c2ccc(OS(C)(=O)=O)cc2Cl)ccc1Cl [F288]", "pest or weed control at 140 g/ha": "75 to 84%"}
{"molecule": "COC(=O)c1nc(-c2ccc(OC(F)F)cc2Cl)c(F)cc1Cl [F200]", "pest or weed control at 140 g/ha": "95 to 100%"}
{"molecule": "O=C(O)c1nc(-c2nc(Cl)c(C(F)(F)F)cc2Cl)ccc1Cl [F225]", "pest or weed control at 140 g/ha": "95 to 100%"}
{"molecule": "COC(=O)c1nc(-c2cc(F)c(C(F)(F)F)cc2OC)c(F)cc1Cl [F359]", "pest or weed control at 140 g/ha": "30 to 44%"}

pest or weed control at 140 g/ha for COC(=O)c1nc(-c2ccc3c(c2F)OC(F)(F)O3)c(F)cc1Cl [F229] ?
95 to 100%

Would you mind telling me what pest or weed control at 140 g/ha value was observed for COC(=O)c1nc(-c2ccc(C(F)(F)F)cc2C)c(F)cc1F [F376] ?
60 to 74%

Please report the recorded pest or weed control at 140 g/ha for COC(=O)c1nc(-c2ccc3c(c2)C(F)(F)OC(F)(F)O3)c(Cl)cc1Cl [F202] .
0 to 29%

Requested read-out: pest or weed control at 140 g/ha. Entry: COC(=O)c1nc(-c2ccc(Cl)c(C(F)F)c2F)ccc1Cl [F273]
60 to 74%

---

# System: test plant species
# test details: Post-emergent herbicidal activity test (greenhouse, foliar spray, visual growth reduction)
# Type: in vivo
# cond: post-emergence, 336 h, SETFA: giant foxtail (Setaria faberi), 140 g ai/ha, 14 days after application, read-out: Visual Growth Reduction (%) 14 Days After Application, SETFA
# Description: Post-emergent Test: Seeds or nutlets of the desired test plant species were planted in Sun Gro Metro-Mix® 360 planting mixture, which typically has a pH of 6.0 to 6.8 and an organic matter content of about 30 percent, in plastic pots with a surface area of 64 square centimeters. In some aspects, to ensure good germination and healthy plants, a fungicide treatment and/or other chemical or physical treatment was applied. […]
measured endpoint: pest or weed control at 140 g/ha

Examples with their reported pest or weed control at 140 g/ha follow.
{"compound structure": "COC(=O)c1nc(-c2ccc(OC(F)(F)F)cc2F)c(F)cc1Cl", "pest or weed control at 140 g/ha": "75 to 84%"}
{"compound structure": "COC(=O)c1nc(-c2ccc(C(F)(F)F)cc2Cl)cc(Cl)c1Cl", "pest or weed control at 140 g/ha": "0 to 29%"}
{"compound structure": "COC(=O)c1nc(-c2ccc(F)c(OC)c2)ccc1Cl", "pest or weed control at 140 g/ha": "0 to 29%"}
{"compound structure": "COC(=O)c1nc(-c2ccc(C(F)(F)F)c(OC)c2)ccc1Cl", "pest or weed control at 140 g/ha": "0 to 29%"}
{"compound structure": "COc1cc(C(F)(F)F)ccc1-c1nc(C(=O)OCc2ccccc2)c(Cl)cc1F", "pest or weed control at 140 g/ha": "85 to 94%"}

Field: pest or weed control at 140 g/ha (test plant species). Entry: COC(=O)c1nc(-c2ccc(C(F)(F)F)cc2Cl)ccc1C
0 to 29%

Query for test plant species: what pest or weed control at 140 g/ha does the record show for COC(=O)c1nc(-c2ccc(C(F)F)cc2)ncc1Cl ?
0 to 29%

Param readout = pest or weed control at 140 g/ha; param system = test plant species; param query = COC(=O)c1nc(-c2cc3c(cc2OC)OC(F)(F)O3)c(F)cc1Cl ; response: value
30 to 44%

Identify the measured pest or weed control at 140 g/ha of C=Cc1cc(C(F)(F)F)cc(Cl)c1-c1ccc(Cl)c(C(=O)O)n1 for test plant species.
30 to 44%

Test system test plant species; read-out pest or weed control at 140 g/ha; what value for COC(=O)c1nc(-c2ccc(OC)nc2)ccc1Cl ?
0 to 29%

---

# Test system: test plant species
# test details: Post-emergent herbicidal activity test (greenhouse, foliar spray, visual growth reduction)
# Format: in vivo
# cond: post-emergence, 336 h, ECHCG: barnyardgrass (Echinochloa crus-galli), 140 g ai/ha, 14 days after application, read-out: Visual Growth Reduction (%) 14 Days After Application, ECHCG
measured endpoint: pest or weed control at 140 g/ha

Before answering, review these 6 worked examples.
{"compound structure": "O=C(OCc1ccccn1)c1nc(-c2ccc(C(F)(F)F)cc2Cl)ccc1Cl", "pest or weed control at 140 g/ha": "75 to 84%"}
{"compound structure": "COC(=O)c1nc(-c2ccc(OC)cc2)c(F)cc1Cl", "pest or weed control at 140 g/ha": "0 to 29%"}
{"compound structure": "COC(=O)c1nc(-c2ccc(C(F)(F)F)cc2C)ccc1Cl", "pest or weed control at 140 g/ha": "0 to 29%"}
{"compound structure": "COC(=O)c1nc(-c2ccc(S(C)(=O)=O)cc2F)c(F)cc1Cl", "pest or weed control at 140 g/ha": "75 to 84%"}
{"compound structure": "COC(=O)c1nc(-c2ccc(C(F)(F)F)cc2Cl)cc(Br)c1Cl", "pest or weed control at 140 g/ha": "0 to 29%"}
{"compound structure": "O=C(O)c1nc(-c2ccc(C(F)(F)F)c(C(F)F)c2F)c(F)cc1Cl", "pest or weed control at 140 g/ha": "60 to 74%"}

Requested field: pest or weed control at 140 g/ha. Item: COC(=O)c1nc(-c2cc(C)c(Cl)cc2Cl)ccc1Cl
0 to 29%

Look up pest or weed control at 140 g/ha for this compound: COC(=O)c1nc(-c2ccc(C(F)(F)F)cc2F)c(F)cc1F
85 to 94%

Requested read-out: pest or weed control at 140 g/ha. Entry: COC(=O)c1nc(-c2ccc(F)c3c2OC(F)(F)O3)c(F)cc1Cl
0 to 29%

Which measured pest or weed control at 140 g/ha value corresponds to COC(=O)c1nc(-c2ccc(Cl)c(OC)c2F)c(F)c(Cl)c1Cl ?
0 to 29%

---

# Test system: test plant species
# test details: Post-emergent herbicidal activity test (greenhouse, foliar spray, visual growth reduction)
# Format: in vivo
# cond: post-emergence, 336 h, SORVU: grain sorghum (Sorghum vulgare), 140 g ai/ha, 14 days after application, read-out: Visual Growth Reduction (%) 14 Days After Application, SORVU
measured endpoint: pest or weed control at 140 g/ha

{"compound": "COC(=O)c1nc(-c2cc(C#N)c(C(F)(F)F)cc2Cl)ccc1Cl [F326]", "pest or weed control at 140 g/ha": "95 to 100%"}

Could you share what pest or weed control at 140 g/ha was measured for COC(=O)c1nc(-c2cc3c(cc2F)OC(F)(F)O3)ccc1Cl [F172] , tested on test plant species?
95 to 100%

Find the measured pest or weed control at 140 g/ha: item COC(=O)c1nc(-c2cc(F)c(Cl)c(OC)c2)ccc1Cl [F278] , target or system test plant species.
0 to 29%

pest or weed control at 140 g/ha of COC(=O)c1cccc(-c2ccc(C(F)(F)F)cc2Cl)n1 [F55] on test plant species?
0 to 29%

Report pest or weed control at 140 g/ha for COC(=O)c1nc(-c2ccc(C#N)cc2)c(F)cc1Cl [F168] tested on test plant species.
30 to 44%

Form: Entry = O=C(O)c1nc(-c2ccc(OC(F)(F)F)cc2Cl)ccc1Cl [F226] | System = test plant species | pest or weed control at 140 g/ha = ____
85 to 94%

Return pest or weed control at 140 g/ha measured with test plant species given this compound: O=C(O)c1nc(-c2ccc(SC(F)(F)F)cc2)ccc1Cl [F94]
0 to 29%

Query pest or weed control at 140 g/ha on test plant species for COC(=O)c1nc(-c2cccc3c2OC(F)(F)O3)c(F)cc1Cl [F256]
0 to 29%

Lookup: pest or weed control at 140 g/ha / test plant species / O=C(OCc1ccc(Cl)cc1Cl)c1nc(-c2ccc(C(F)(F)F)cc2Cl)ccc1Cl [F116]
85 to 94%

// fetch test plant species pest or weed control at 140 g/ha for COC(=O)c1nc(-c2ccc(C(F)F)cc2OC)c(F)cc1Cl [F275]
45 to 59%

Notebook entry, test plant species assay: pest or weed control at 140 g/ha of COc1cc(C(F)(F)F)ccc1-c1nc(C(=O)OCc2ccccc2)c(Cl)cc1F [F363] = ?
95 to 100%

Record C=Cc1c(C(F)(F)F)ccc(-c2nc(C(=O)OC)c(Cl)cc2F)c1Cl [F338] : what is its pest or weed control at 140 g/ha with test plant species?
85 to 94%

pest or weed control at 140 g/ha of COc1cc(C(F)(F)F)ccc1-c1nc(C(=O)O)c(Cl)cc1F [F190] on test plant species?
95 to 100%

# returns recorded pest or weed control at 140 g/ha (system: test plant species) for COC(=O)c1nc(-c2ccc(Cl)c(C)c2F)ccc1Cl [F272]
0 to 29%

Give pest or weed control at 140 g/ha (test plant species) of the following compound: O=C(O)c1nc(-c2cc3c(cc2Cl)OC(F)(F)O3)c(F)cc1Cl [F175]
95 to 100%

Kindly state the measured pest or weed control at 140 g/ha obtained for COC(=O)c1nc(-c2cc3c(cc2Cl)OC(F)(F)O3)ncc1Cl [F232] with test plant species.
85 to 94%

Please tell me: pest or weed control at 140 g/ha of COC(=O)c1nc(-c2cc([N+](=O)[O-])c(C(F)(F)F)cc2Cl)c(F)cc1Cl [F322] , system test plant species?
0 to 29%

So what pest or weed control at 140 g/ha did COC(=O)c1nc(-c2ccc(Cl)c(OC)c2F)ncc1Cl [F115] get with test plant species?
0 to 29%

Query for test plant species: what pest or weed control at 140 g/ha does the record show for CSc1cc(-c2nc(C(=O)O)c(Cl)cc2F)c(Cl)cc1C(F)(F)F [F342] ?
30 to 44%

Find the measured pest or weed control at 140 g/ha: item COC(=O)c1nc(-c2cc(F)c(C(F)(F)F)cc2F)c(Cl)cc1Cl [F325] , target or system test plant species.
85 to 94%

Query for test plant species: what pest or weed control at 140 g/ha does the record show for COC(=O)c1nc(-c2ccc(Cl)c(C(F)F)c2Cl)ccc1Cl [F281] ?
85 to 94%

What reported pest or weed control at 140 g/ha corresponds to COC(=O)c1nc(-c2ccc(Cl)cc2)ccc1Cl [F82] on test plant species?
0 to 29%

Query for test plant species: what pest or weed control at 140 g/ha does the record show for COC(=O)c1nc(-c2ccc(C(C)=O)cc2Cl)ccc1Cl [F26] ?
0 to 29%

Return pest or weed control at 140 g/ha measured with test plant species given this compound: COC(=O)c1nc(-c2ccc(C(F)(F)F)c(Br)c2Cl)c(F)cc1Cl [F341]
95 to 100%

Look up pest or weed control at 140 g/ha with test plant species for this compound: COC(=O)c1nc(-c2ccc(C(F)(F)F)c3ccoc23)c(F)cc1Cl [F297]
60 to 74%
